test system: SK-OV-3 ovarian; test: NCI tumour cell line growth inhibition, 384-well format; in the data active = GI50 below about 0.43 µM; inactive = the rest
Would you mind answering with one of these outcomes? true (active), false (inactive)

Exam item: Returns: the outcome recorded for Cc1sc2c(c1C)C(c1ccc(Cl)cc1)=N[C@@H](CC(=O)Nc1ccc(O)cc1)c1nnc(C)n1-2 in this assay.
Marked response: true

Exam item: Returns: the outcome recorded for CO[C@H]1/C=C/C[C@H](C)[C@@H](C)S(=O)(=O)NC(=O)c2ccc3c(c2)N(C[C@@H]2CC[C@H]21)C[C@@]1(CCCc2cc(Cl)ccc21)CO3 in this assay.
Marked response: false

Exam item: Returns: the outcome recorded for O=c1[nH]cc(F)c(=O)[nH]1 in this assay.
Marked response: false

Exam item: Returns: the outcome recorded for CO[C@@]12[C@H](COC(N)=O)C3=C(C(=O)C(C)=C(N)C3=O)N1C[C@@H]1N[C@@H]12 in this assay.
Marked response: true

# credit: PubChem BioAssay (NCI)
